- measurementProtocol: Quantitative highthroughput screen to assess conditional lethalithy of SEM cells grown in RPMI1640 with unreated serum (RPMI+s) (AID 1963883); note: nearly all actives have a fitted effect of over 35% in size
- testSettings: SEM B-ALL cells, CellTiter-Glo viability, 48 h; series mostly up to 45.8 µM
Records with an inconclusive call do not appear. Active and inactive are the calls of the source. Calls come from the whole dose curve; as a rule, active = well fitted cell-killing curve with a large enough effect; inconclusive = small, poorly fitted or top-dose-only effect, or effect the other way; inactive = no such curve, though single readings can be large or run the other way.
Labels: active, inactive

linenotation=Cc1ccccc1-n1c(Cn2nc(-c3cccc(O)c3)c3c(N)ncnc32)nc2cccc(C)c2c1=O classification=inactive
linenotation=C=CC(=O)Nc1cccc(Oc2nc(Nc3ccc(N4CCN(C)CC4)cc3)ncc2Cl)c1 classification=active
linenotation=O=C(C1CC1)N1CC[C@@H](Cn2c(-c3ccc(-c4ccc5occc5c4)cc3)nc3cnccc32)C1 classification=inactive
